# Test system: hEAAT2 promoter
# PROTOCOL_NOTES: hEAAT2 promoter luciferase assay of agents in PHFA (FIG. 10)
# Format: cell-based, human
# RUN_PARAMETERS: PHFA passage #3; 10 μM

| RECORD_SMILES | hEAAT2 promoter activity |
| --- | --- |
| O=C(N[C@H](CO)[C@H](O)c1ccc([N+](=O)[O-])cc1)C(Cl)Cl | potent stimulators |
| CO/N=C(\C(=O)N[C@@H]1C(=O)N2C(C(=O)O)=C(CSc3nc(=O)c(=O)[nH]n3C)CS[C@H]12)c1csc(N)n1 | potent stimulators |
| CS(=O)(=O)c1ccc([C@@H](O)[C@@H](CO)NC(=O)C(Cl)Cl)cc1 | potent stimulators |
| CCCC(=O)Nc1ncnc2c1ncn2[C@@H]1O[C@@H]2COP(=O)(O)O[C@H]2[C@H]1OC(=O)CCC | potent stimulators |
